Biological target: KAT5 (Homo sapiens)
Sequence (Q92993 with tags, fused parts or gaps): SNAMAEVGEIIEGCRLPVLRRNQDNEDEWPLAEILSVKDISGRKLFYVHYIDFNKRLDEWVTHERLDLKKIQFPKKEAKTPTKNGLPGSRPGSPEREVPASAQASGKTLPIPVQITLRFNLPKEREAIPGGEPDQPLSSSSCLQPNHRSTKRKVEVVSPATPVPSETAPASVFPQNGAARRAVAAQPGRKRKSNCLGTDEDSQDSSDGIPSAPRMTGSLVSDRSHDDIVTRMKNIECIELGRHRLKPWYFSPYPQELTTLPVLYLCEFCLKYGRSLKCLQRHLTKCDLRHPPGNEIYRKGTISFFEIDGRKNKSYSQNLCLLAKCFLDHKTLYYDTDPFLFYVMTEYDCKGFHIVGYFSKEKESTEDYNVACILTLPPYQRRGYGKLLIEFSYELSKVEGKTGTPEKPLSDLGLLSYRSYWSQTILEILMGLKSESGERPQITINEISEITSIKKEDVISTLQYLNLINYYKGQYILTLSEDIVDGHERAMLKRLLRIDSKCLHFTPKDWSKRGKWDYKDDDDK
Property measured: IC50

A selection of reference data follows.
Item smiles: Cc1cc(C(=O)NNS(=O)(=O)c2ccccc2)c(F)c(-c2ccccc2)c1
Property measured: IC50
Recorded result: 10 to 50 µM
--
Item smiles: CCc1cc(Cl)c(F)c(C(=O)NNS(=O)(=O)CC2CCCCC2)c1
Property measured: IC50
Recorded result: ≤ 10 µM
--
Item smiles: Cc1cc(-c2ccccc2)cc(C(=O)NNS(=O)(=O)CC2CCN(C)CC2)c1F
Property measured: IC50
Recorded result: 10 to 50 µM

Tested on KAT5 (Homo sapiens): `Cc1cc(-c2cccc(C(=O)OCc3ccccc3)c2)cc(C(=O)NNS(=O)(=O)CC2CCCCC2)c1F` . Observed IC50: 10 to 50 µM
